experiment: Displacement of [3H]2-BFI from I2IR in human brain frontal cortex incubated for 45 mins by liquid scintillation spectrometry; format: tissue-based
Reported values of pKi for individual entries
Answer as a number with no unit attached.

Reference set (3 entries):
{"columns": ["molecule", "pKi"],
 "data": [
  ["CCOP(=O)(OCC)C1(Cc2ccc(F)cc2)N=CC2C(=O)N(c3ccccc3)C(=O)C21 (racemic)", 5.35],
  ["CCOP(=O)(OCC)C1(c2ccccc2)N=CC2C(=O)N(c3cccc4ccccc34)C(=O)C21 (racemic)", 3.11],
  ["CCOP(=O)(OCC)C1(c2ccc(F)cc2)N=CC2C(=O)N(c3ccc(F)c(Cl)c3)C(=O)C21 (racemic)", 7.55]
]}

Next:
# pKi of CCOP(=O)(OCC)C1(c2ccccc2)N=CC2C(=O)N(c3cccnc3Cl)C(=O)C21 (racemic) = 7.96

---

experiment: Effective permeability of compound by PAMPA-BBB assay; format: ADME; conditions: read-out: Peff
metricName: Papp
Write the quantity with the unit trailing the number.

Entry CCOP(=O)(OCC)C1(c2ccccc2)N=CC2C(=O)N(c3ccc(F)c(Cl)c3)C(=O)C21 (racemic) — recorded Papp = 9.7 ×10⁻⁶ cm/s

---

assay: Displacement of [3H]2-BFI from I2IR in human brain frontal cortex incubated for 45 mins by liquid scintillation spectrometry; type: tissue-based
metricName: pKi
Respond using a number only.

Worked cases, pKi given:
{"columns": ["compound", "pKi"],
 "data": [
  ["CCOP(=O)(OCC)C1(c2ccccc2)N=CC2C(=O)N(Cc3ccccc3)C(=O)C21 (racemic)", 5.26],
  ["CCOP(=O)(OCC)C1N=CC2C(=O)N(c3ccccc3)C(=O)C21 (racemic)", 7.73],
  ["CCOP(=O)(OCC)C1(c2ccccc2)N=CC2C(=O)N(c3ccc(C)cc3)C(=O)C21 (racemic)", 5.44]
]}

What the record says about CCOP(=O)(OCC)C1(c2ccccc2)N=CC2C(=O)N(CC34CC5CC(CC(C5)C3)C4)C(=O)C21 (racemic) : pKi is 7.01

---

Reported Ratio pKi values for a set of molecules
species on record: Homo sapiens; assay: Selectivity index, […] for alpha2-AR human brain frontal cortex […] in human brain frontal cortex

# annotated cases, reported Ratio pKi shown
{"columns": ["molecule", "Ratio pKi"],
 "data": [
  ["CCOP(=O)(OCC)C1(c2ccc(F)cc2)N=CC2C(=O)N(c3ccc(F)c(Cl)c3)C(=O)C21 (racemic)", 14800],
  ["CCOP(=O)(OCC)C1(c2ccccc2)N=CC2C(=O)N(CC)C(=O)C21 (racemic)", 331]
]}

Switching to the query record.
Field Ratio pKi (entry CCOP(=O)(OCC)C1(c2ccccc2)N=CC2C(=O)N(c3cccnc3Cl)C(=O)C21 (racemic) ) reads 91200

---

assay: Displacement of [3H]2-BFI from I2IR in human brain frontal cortex incubated for 45 mins by liquid scintillation spectrometry; type: tissue-based
metricName: pKi
Please reply with the number alone, leaving off any unit.

{"columns": ["molecule", "observed"],
 "data": [
  ["CCOP(=O)(OCC)C1(Cc2ccccc2)N=CC2C(=O)N(c3ccccc3)C(=O)C21 (racemic)", 6.59]
]}

# pKi of CCOP(=O)(OCC)C1(c2ccccc2)N=CC2C(=O)N(C3Cc4ccccc4C3)C(=O)C21 (racemic) = 3.84

What the record says about CCOP(=O)(OCC)C1(c2ccc(OC)cc2)N=CC2C(=O)N(c3ccc(F)c(Cl)c3)C(=O)C21 (racemic) : pKi is 7.87

Query CCOP(=O)(OCC)C1(c2ccccc2)N=CC2C(=O)N(c3ccccc3)C(=O)C21 (racemic) yields pKi of 10.28

Sure, the documented pKi for CCOP(=O)(OCC)C1(c2ccccc2)N=CC2C(=O)N(c3ccc(OC)cc3)C(=O)C21 (racemic) is 6.65

Reference source: ChEMBL document CHEMBL4354864
